Tested target: Ba/F3 ABL (Homo sapiens, UniProt P00519)
Construct: candidates: BCR or TEL (ETV6)
Sequence (P00519 whole entry, change not shown): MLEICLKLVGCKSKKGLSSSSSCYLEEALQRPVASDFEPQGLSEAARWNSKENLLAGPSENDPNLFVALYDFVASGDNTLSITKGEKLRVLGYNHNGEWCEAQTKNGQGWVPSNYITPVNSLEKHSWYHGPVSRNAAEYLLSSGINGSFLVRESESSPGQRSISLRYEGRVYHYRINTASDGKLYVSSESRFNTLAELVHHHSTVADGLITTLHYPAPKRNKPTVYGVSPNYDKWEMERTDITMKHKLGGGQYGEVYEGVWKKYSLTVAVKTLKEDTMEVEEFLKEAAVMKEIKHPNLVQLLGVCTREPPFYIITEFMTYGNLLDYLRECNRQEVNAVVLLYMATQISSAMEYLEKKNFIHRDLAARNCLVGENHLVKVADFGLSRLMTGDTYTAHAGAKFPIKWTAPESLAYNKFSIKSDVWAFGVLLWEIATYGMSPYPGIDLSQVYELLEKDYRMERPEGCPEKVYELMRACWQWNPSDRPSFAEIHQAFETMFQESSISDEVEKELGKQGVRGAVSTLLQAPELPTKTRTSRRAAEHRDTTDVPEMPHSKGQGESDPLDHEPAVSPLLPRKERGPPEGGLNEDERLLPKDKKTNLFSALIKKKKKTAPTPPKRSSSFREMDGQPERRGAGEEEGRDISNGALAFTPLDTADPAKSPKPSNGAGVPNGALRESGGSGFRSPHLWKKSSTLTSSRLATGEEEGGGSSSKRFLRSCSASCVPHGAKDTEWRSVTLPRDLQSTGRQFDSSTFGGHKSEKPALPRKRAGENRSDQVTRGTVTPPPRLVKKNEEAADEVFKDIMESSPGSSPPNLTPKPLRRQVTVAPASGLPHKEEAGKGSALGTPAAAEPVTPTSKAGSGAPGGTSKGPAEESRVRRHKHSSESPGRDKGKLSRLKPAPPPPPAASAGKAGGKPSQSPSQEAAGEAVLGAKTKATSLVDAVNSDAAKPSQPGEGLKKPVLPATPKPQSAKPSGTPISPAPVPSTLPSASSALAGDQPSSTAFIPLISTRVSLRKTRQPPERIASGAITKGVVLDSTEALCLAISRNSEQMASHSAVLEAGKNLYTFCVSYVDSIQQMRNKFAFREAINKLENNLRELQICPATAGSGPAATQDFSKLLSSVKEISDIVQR
Procedure text: CellTiter-Glo cell proliferation, Ba/F3 ABL
Type: cell-based, murine
Test conditions: 72 hours; read-out: Ba/F3 IC50 ABL
Measured attribute: GI50

# Smiles input, GI50
measured = [
    ("C=CC(=O)Nc1cccc(CN2C(=O)N(C)Cc3cnc(Nc4cnn(C)c4)nc32)c1", "> 50 µM"),
    ("C=CC(=O)Nc1cccc(CNc2nc(Nc3cc(F)c(C4CCOCC4)c(F)c3)ncc2Cl)c1", "> 50 µM"),
]

Could you now look at the following compound, please?
Value (GI50, Ba/F3 ABL (Homo sapiens, UniProt P00519)) for record C=CC(=O)Nc1cccc(CN2CCc3cnc(Nc4cnn(C)c4)nc32)c1 = > 50 µM
